assay: Equilibrium solubility in various aqueous media (solubility after 2 h); type: physicochemical; settings: aqueous buffer, thermodynamic from solid; Acetate Buffer (pH 5.0)
Assay Readout: solubility at 2 h (µg/mL)
State just the number; it will be interpreted in µg/mL.

## Input Look at this compound and give its reported solubility at 2 h. CCCS(=O)(=O)Nc1ccc(F)c(-n2cc(-c3cncnc3)c3nc(N(C)C4CCN(CC)CC4)ccc32)c1F.Cl [Monohydrochloride Salt]
## Output 200

====

Assay: Equilibrium solubility in various aqueous media (solubility after 2 h)
Assay type: physicochemical
Details: aqueous buffer, thermodynamic from solid; 0.1M NaOH
Experimental: Saturated solutions are prepared in well plates by adding an appropriate volume of selected aqueous media (typically in the range of 0.25-1.5 mL) into each well which contains a known quantity of solid drug substance (typically in the range 0.5-5.0 mg). […] The amount of dissolved drug substance is determined by UV spectroscopy. In addition, the pH of the aqueous saturated solution is measured using a glass-electrode pH meter. […]
Assay Readout: solubility at 2 h

## Input Look at this compound and give its reported solubility at 2 h. CCCS(=O)(=O)Nc1ccc(F)c(-n2cc(-c3cncnc3)c3nc(N(C)C4CCN(CC)CC4)ccc32)c1F.Cl [Monohydrochloride Salt]
## Output > 10000 µg/mL

====

test: Pharmacokinetics following oral administration to rats; type: in vivo, HsdHan:WIST Norway rats; conditions: HsdHan:WIST, plasma; 80 mg/kg oral, rat
Assay Readout: Tmax (h)
State just the number; it will be interpreted in h.

## Input Look at this molecule and give its reported Tmax. CCCS(=O)(=O)Nc1ccc(F)c(-n2cc(-c3cncnc3)c3nc(N(C)C4CCN(CC)CC4)ccc32)c1F.Cl [Monohydrochloride Salt]
## Output 4

====

test: Equilibrium solubility of Form A in water; assay type: physicochemical; details: thermodynamic from solid, room temperature, HPLC
Assay Readout: solubility thermodynamic at 24 h (mg/mL)
State just the number; it will be interpreted in mg/mL.

## Input Look at this compound and give its reported solubility thermodynamic at 24 h. CCCS(=O)(=O)Nc1ccc(F)c(-n2cc(-c3cncnc3)c3nc(N(C)C4CCN(CC)CC4)ccc32)c1F.O=C(O)CCC(=O)O [Monosuccinate Salt]
## Output 14.3

====

assay: Equilibrium solubility in various aqueous media (solubility after 2 h); assay type: physicochemical; conditions: aqueous buffer, thermodynamic from solid; Sorensen Buffer (pH 11)
Each entry below lists one item and its recorded solubility at 2 h value.
State just the number; it will be interpreted in µg/mL.

CCCS(=O)(=O)Nc1ccc(F)c(-n2cc(-c3cncnc3)c3nc(N(C)C4CCN(CC)CC4)ccc32)c1F.Cl [Monohydrochloride Salt]    700

Consider the record given below.
## Input Look at this compound and give its reported solubility at 2 h. CCCS(=O)(=O)Nc1ccc(F)c(-n2cc(-c3cncnc3)c3nc(N(C)C4CCN(CC)CC4)ccc32)c1F.O=C(O)CCC(=O)O [Monosuccinate Salt]
## Output 50

====

assay: Equilibrium solubility in various aqueous media (solubility after 2 h); assay type: physicochemical; conditions: 0.01 M HCl, simulated gastric fluid, thermodynamic from solid; HCl (0.01M)
Assay Readout: solubility at 2 h

CCCS(=O)(=O)Nc1ccc(F)c(-n2cc(-c3cncnc3)c3nc(N(C)C4CCN(CC)CC4)ccc32)c1F.Cl [Monohydrochloride Salt]    20 µg/mL

## Input Look at this molecule and give its reported solubility at 2 h. CCCS(=O)(=O)Nc1ccc(F)c(-n2cc(-c3cncnc3)c3nc(N(C)C4CCN(CC)CC4)ccc32)c1F.O=C(O)CCC(=O)O [Monosuccinate Salt]
## Output > 50 µg/mL

====

assay: Pharmacokinetics following oral administration to rats; type: in vivo, HsdHan:WIST Norway rats; conditions: HsdHan:WIST, in vivo; 80 mg/kg oral, rat
Assay Readout: Cmax (nM)
State just the number; it will be interpreted in nM.

## Input Look at this compound and give its reported Cmax. CCCS(=O)(=O)Nc1ccc(F)c(-n2cc(-c3cncnc3)c3nc(N(C)C4CCN(CC)CC4)ccc32)c1F.Cl [Monohydrochloride Salt]
## Output 419

====

assay: Pharmacokinetics following oral administration to rats; type: in vivo, HsdHan:WIST Norway rats; details: HsdHan:WIST, rat, in vivo, po, 40 mg/kg, Time 24.0, 40 mg/kg oral, mean n = 3, read-out: Blood Plasma Concentrations
Assay Readout: concentration at 24 h (nM)
State just the number; it will be interpreted in nM.

## Input Look at this molecule and give its reported concentration at 24 h. CCCS(=O)(=O)Nc1ccc(F)c(-n2cc(-c3cncnc3)c3nc(N(C)C4CCN(CC)CC4)ccc32)c1F.O=C(O)CCC(=O)O [Monosuccinate Salt]
## Output 3.98

Recorded values, source patent US11753409B2.
